Values were extracted from patent US20260042735A1.

Give measured Ki for each item. Keep answers brief.
- Assay system: 5HT2B receptor (Homo sapiens, UniProt P41595)
- Sequence (P41595 whole entry): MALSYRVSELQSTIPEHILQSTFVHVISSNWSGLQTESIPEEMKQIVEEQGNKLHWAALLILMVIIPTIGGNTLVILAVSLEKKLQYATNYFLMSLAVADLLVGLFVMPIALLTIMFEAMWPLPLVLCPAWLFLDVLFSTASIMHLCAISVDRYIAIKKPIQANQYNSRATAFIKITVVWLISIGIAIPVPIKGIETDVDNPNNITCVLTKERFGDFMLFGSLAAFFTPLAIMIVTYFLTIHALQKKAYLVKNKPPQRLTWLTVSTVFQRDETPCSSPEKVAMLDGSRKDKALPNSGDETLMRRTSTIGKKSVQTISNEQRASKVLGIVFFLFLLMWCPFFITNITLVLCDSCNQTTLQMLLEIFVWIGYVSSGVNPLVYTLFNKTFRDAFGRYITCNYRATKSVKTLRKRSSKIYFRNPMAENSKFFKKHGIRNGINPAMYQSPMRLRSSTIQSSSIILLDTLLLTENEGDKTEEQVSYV
- Test name: 5HT2B competitive binding assay
- Condition set: Table 1, all units nM; read-out: 2B Binding
Give the number; nM is assumed, so skip it.

Query string: Looking for the measured Ki of CN(CCc1c[nH]c2ccccc12)Cc1cccc2c1OCO2 [Example 26] , can you help?
Result string: 60

Query string: Try the molecule C#Cc1cccc(CN(C)CCc2c[nH]c3ccccc23)c1 [Example 25]
Result string: 13

Query string: Try the molecule COc1ccc(CN(C)CCc2c[nH]c3ccccc23)cc1 [Example 14]
Result string: 69

Query string: Try the molecule CN(CCc1c[nH]c2ccccc12)Cc1ccccc1 [Example 17]
Result string: 45

Query string: Try the molecule COc1cccc(CN(CCc2c[nH]c3ccccc23)C(C)C)c1OC [Example 16]
Result string: 313

Query string: Try the molecule COc1cc(OC)c(CN(CCc2c[nH]c3ccc(OC)cc23)C(C)C)c(OC)c1 [B, reference compound]
Result string: 4930

Query string: Try the molecule C=CCN(CCc1c[nH]c2ccc(OC)cc12)Cc1ccccc1OC [Example 13]
Result string: 73

Query string: Try the molecule COc1ccc2[nH]cc(CCN(Cc3ccccc3OC)C(C)C)c2c1 [Example 12]
Result string: 341

Query string: Try the molecule C/C=C\CN(CCc1c[nH]c2ccccc12)Cc1cccc(OC)c1 [Example 19]
Result string: 44

###

- Assay system: human 5-HT2A receptor (Homo sapiens (Human), UniProt P28223)
- Test name: 5HT2A competitive binding assay (Eurofins Cerep)
- Condition set: 125I-DOI 0.1 nM, HEK-293, Cheng Prusoff; read-out: 5HT2A binding constant Ki
Property measured: pKi
Keep it numeric: pKi is minus log10 of the concentration in mol/L.

Query string: Looking for the measured pKi of COc1cccc(CN(C)CCc2c[nH]c3ccccc23)c1 [Example 10] , can you help?
Result string: 7.85

###

- Assay system: 5HT2B receptor (Homo sapiens)
- Test name: 5HT2B competitive binding assay
- Condition set: Table 1, all units nM; read-out: 2B Binding
Give measured Ki for each item. Keep answers brief.
In your response, the unit should come after the numeric value.

Query string: Looking for the measured Ki of CN(CCc1c[nH]c2ccccc12)Cc1cccc(Br)c1 , can you help?
Result string: 22 nM

Query string: Try the compound C=CCN(CCc1c[nH]c2ccccc12)Cc1cccc(OC)c1
Result string: 21 nM

Query string: Try the compound CN(CCc1c[nH]c2ccccc12)Cc1cccc(CO)c1
Result string: 50 nM

###

- Assay system: UniProt:P41595
- Test name: 5HT2B (IP1) functional agonist assay
- Assay type: cell-based
- Condition set: Table 1, all units nM; read-out: 2B EC50 Functional Agonist
Give measured EC50 for each item. Keep answers brief.

Query string: Looking for the measured EC50 of C#Cc1cccc(CN(C)CCc2c[nH]c3ccccc23)c1 [Example 25] , can you help?
Result string: 163 nM

Query string: Try the compound C/C=C\CN(CCc1c[nH]c2ccccc12)Cc1cccc(OC)c1 [Example 19]
Result string: > 10000 nM

Query string: Try the compound C=CCN(CCc1c[nH]c2ccc(OC)cc12)Cc1ccccc1OC [Example 13]
Result string: > 10000 nM

Query string: Try the compound COc1cccc(CN(CCc2c[nH]c3ccccc23)C(C)C)c1OC [Example 16]
Result string: > 10000 nM

Query string: Try the compound COc1ccc2[nH]cc(CCN(Cc3ccccc3OC)C(C)C)c2c1 [Example 12]
Result string: > 10000 nM

###

- Assay system: 5HT2B receptor (Homo sapiens, UniProt P41595)
- Test name: 5HT2B functional antagonist assay
- Assay type: cell-based
Property measured: IC50

Query string: Looking for the measured IC50 of COc1cccc(CN(C)CCc2c[nH]c3ccccc23)c1OC , can you help?
Result string: 1370 nM

Query string: Try the compound CN(CCc1c[nH]c2ccccc12)Cc1cccc(O)c1
Result string: > 10000 nM

Query string: Try the compound COc1ccc2[nH]cc(CCN(C)Cc3c(OC)cccc3OC)c2c1 [A, reference compound]
Result string: > 10000 nM

Query string: Try the compound COc1ccc2[nH]cc(CCN(C)Cc3cc(OC)c(OC)c(OC)c3)c2c1 [C, reference compound]
Result string: 2050 nM

###

- Assay system: 5HT2B receptor (Homo sapiens, UniProt P41595)
- Test name: 5HT2B functional antagonist assay
- Assay type: cell-based
- Condition set: CHO cells, background serotonin 10 uM; read-out: 5HT2B functional antagonist IC50
pIC50: −log10 of the molar value.
Property measured: pIC50

Query string: Looking for the measured pIC50 of COc1ccc2[nH]cc(CCN(C)Cc3ccccc3OC)c2c1 , can you help?
Result string: > 5.00

###

Give measured pKi for each item. Keep answers brief.
- Assay system: human recombinant 5-HT1A (Homo sapiens (Human))
- Test name: 5HT1A competitive binding assay (Eurofins Cerep)
- Condition set: [3H]8-OHDPAT 0.5 nM, HEK-293, Cheng Prusoff; read-out: 5HT1A binding constant Ki
Keep it numeric: pKi is minus log10 of the concentration in mol/L.

Query string: Looking for the measured pKi of COc1cccc(CN(C)CCc2c[nH]c3ccccc23)c1 [Example 10] , can you help?
Result string: 6.29

Query string: Try the molecule COc1ccc2[nH]cc(CCN(C)Cc3ccccc3OC)c2c1 [Example 1]
Result string: 6.27

###

- Test name: Pharmacokinetics after i.v. administration in rats
- Format: in vivo
- Condition set: plasma, iv; rat, i.v. 1.0 mg/kg
Property measured: half-life (h)
Give the number; h is assumed, so skip it.

Query string: Looking for the measured half-life of COc1ccc2[nH]cc(CCN(C)Cc3ccccc3OC)c2c1 , can you help?
Result string: 1.1

###

- Assay system: human 5-HT2A receptor (Homo sapiens (Human))
- Test name: 5HT2A competitive binding assay (Eurofins Cerep)
- Condition set: 2A Binding, Table 1, all units nM
Property measured: Ki (nM)
Give the number; nM is assumed, so skip it.

Query string: Looking for the measured Ki of CN(CCc1c[nH]c2ccccc12)Cc1cccc(O)c1 [Example 22] , can you help?
Result string: 35

Query string: Try the compound COc1cccc(CN(C)CCc2c[nH]c3ccc(OC)cc23)c1 [Example 27]
Result string: 16

Query string: Try the compound COc1cccc(CN(C)CCc2c[nH]c3ccccc23)c1OC [Example 15]
Result string: 274

Query string: Try the compound COc1ccccc1CN(C)CCc1c[nH]c2ccccc12 [Example 28]
Result string: 130

Query string: Try the compound CCN(CCc1c[nH]c2ccc(OC)cc12)Cc1ccccc1OC [Example 11]
Result string: 170

Query string: Try the compound COc1ccc2[nH]cc(CCN(C)Cc3c(OC)cccc3OC)c2c1 [A, reference compound]
Result string: 1600

Query string: Try the compound COc1ccc2[nH]cc(CCN(C)Cc3cc(OC)c(OC)c(OC)c3)c2c1 [C, reference compound]
Result string: 340

###

- Assay system: UniProtKB P41595
- Test name: 5HT2B functional antagonist assay
- Assay type: cell-based
- Condition set: Table 1, all units nM; read-out: 2B IC50 Functional Antagonist
Property measured: log10 IC50 (log10 of the value in nM)
Hi team, quick reminder: these entries are log10 of IC50 (nM).

Query string: Given the entry COc1ccc(CN(C)CCc2c[nH]c3ccccc23)cc1 , what log10 IC50 was observed with UniProtKB P41595?
Result string: 3.22

Query string: Try the molecule C/C=C\CN(CCc1c[nH]c2ccccc12)Cc1cccc(OC)c1
Result string: 3.53

Query string: Try the molecule C#Cc1cccc(CN(C)CCc2c[nH]c3ccccc23)c1
Result string: 3.41

Query string: Try the molecule CCc1cccc(CN(C)CCc2c[nH]c3ccccc23)c1
Result string: 2.84

Query string: Try the molecule CN(CCc1c[nH]c2ccccc12)Cc1cccc2c1OCO2
Result string: 3.04

Query string: Try the molecule CN(CCc1c[nH]c2ccccc12)Cc1cccc(Br)c1
Result string: 3.21

Query string: Try the molecule CN(CCc1c[nH]c2ccccc12)Cc1cccc(CO)c1
Result string: 3.84

###

- Assay system: Adrenergic Alpha 2A (Homo sapiens (Human), UniProt P08913)
- Sequence (P08913 whole entry): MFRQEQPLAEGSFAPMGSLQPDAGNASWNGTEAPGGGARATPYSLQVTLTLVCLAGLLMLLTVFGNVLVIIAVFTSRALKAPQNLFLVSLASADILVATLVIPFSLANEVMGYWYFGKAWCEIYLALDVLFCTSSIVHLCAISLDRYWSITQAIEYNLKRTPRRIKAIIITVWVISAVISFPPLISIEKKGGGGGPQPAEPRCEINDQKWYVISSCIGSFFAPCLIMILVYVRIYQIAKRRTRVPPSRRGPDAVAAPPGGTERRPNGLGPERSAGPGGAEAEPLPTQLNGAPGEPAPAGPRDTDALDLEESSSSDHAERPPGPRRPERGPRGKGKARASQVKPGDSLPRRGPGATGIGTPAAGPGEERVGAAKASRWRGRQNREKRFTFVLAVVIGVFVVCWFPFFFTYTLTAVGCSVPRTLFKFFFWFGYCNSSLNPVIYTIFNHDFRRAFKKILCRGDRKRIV
- Test name: Functional GCPR assay, inhibition, Adrenergic Alpha 2A
- Condition set: read-out: IC50 (A2A) inhibition in functional GCPR assay
Property measured: pIC50
Keep it numeric: pIC50 is minus log10 of the concentration in mol/L.

Query string: Looking for the measured pIC50 of COc1ccc2[nH]cc(CCN(C)Cc3ccccc3OC)c2c1 [Example 1] , can you help?
Result string: 5.77

###

- Assay system: 5HT2B receptor (Homo sapiens, UniProt P41595)
- Test name: 5HT2B competitive binding assay
pKi: −log10 of the molar value.
Please use True whenever pKi is not below 7, and False whenever it is.

Query string: Is reported pKi greater than or equal to 7 here: COc1cccc(CN(C)CCc2c[nH]c3ccc(OC)cc23)c1
Result string: True

Query string: Try the compound COc1ccccc1CN(C)CCc1c[nH]c2ccccc12
Result string: False

Query string: Try the compound COc1ccc2[nH]cc(CCN(C)Cc3c(OC)cccc3OC)c2c1 [A, reference compound]
Result string: False

Query string: Try the compound CCN(CCc1c[nH]c2ccc(OC)cc12)Cc1ccccc1OC
Result string: False

Query string: Try the compound COc1cccc(CN(C)CCc2c[nH]c3ccccc23)c1OC
Result string: True

Query string: Try the compound CN(CCc1c[nH]c2ccccc12)Cc1cccc(O)c1
Result string: True
